Test system: MPNST complex spheroid with HUVEC/MSC, growth, % test/control
Assay: Anticancer human tumor MPNST cell line growth inhibition [Asc];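 note: compounds left on spheroids for seven days before reading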
Conditions: curve of first compound; second compound 0.1 µM
Parameter: IC50

Below, 2 molecules whose answers are already recorded.
* Cc1nc(N2CCC3(CC2)COC(C)C3N)c(CO)nc1Sc1ccnc(N)c1Cl (stereo not drawn) + Cc1c(S(C)(=O)=O)c(-c2cc(F)cc(N3CCN(c4ccc(NS(=O)(=O)c5ccc(NC(CCN6CCC(C(=O)OCCCP(=O)(O)O)CC6)CSc6ccccc6)c(S(=O)(=O)C(F)(F)F)c5)cc4)CC3)c2)c(-c2ccc(Cl)cc2)n1C(C)C | > 3000 nM
* NC(=O)C(=Cn1cnc(-c2cc(C(F)(F)F)cc(C(F)(F)F)c2)n1)c1cncnc1 + CNC(C)C(=O)NC1CN(S(=O)(=O)c2cccc(S(=O)(=O)N3CCC4CCC(C(=O)NC(c5ccccc5)c5ccccc5)N4C(=O)C(NC(=O)C(C)NC)C3)c2)CCC2CCC(C(=O)NC(c3ccccc3)c3ccccc3)N2C1=O | 52.7 nM

Moving on to the next molecule.
Hi! What's the reported IC50 for O=C(c1cc(Cc2n[nH]c(=O)c3ccccc23)ccc1F)N1CCN(C(=O)C2CC2)CC1 + Cc1c(S(C)(=O)=O)c(-c2cc(F)cc(N3CCN(c4ccc(NS(=O)(=O)c5ccc(NC(CCN6CCC(C(=O)OCCCP(=O)(O)O)CC6)CSc6ccccc6)c(S(=O)(=O)C(F)(F)F)c5)cc4)CC3)c2)c(-c2ccc(Cl)cc2)n1C(C)C on MPNST complex spheroid with HUVEC/MSC, growth, % test/control?
> 10000 nM

###

Tested on: MPNST complex spheroid with HUVEC/MSC, growth, % test/control
Test: Anticancer human tumor MPNST cell line growth inhibition [Asc];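 note: compounds left on spheroids for seven days before reading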
Settings: second compound 0.00316 µM; first compound 0.1 µM; stronger effect = lower value
Recorded viability, T/C values for a group of compounds are listed next.
Express it in %; write the number only.

• O=C(c1ccc(F)c(F)c1Nc1ccc(I)cc1F)N1CC(O)([C@@H]2CCCCN2)C1 + CNC(C)C(=O)NC1CN(S(=O)(=O)c2cccc(S(=O)(=O)N3CCC4CCC(C(=O)NC(c5ccccc5)c5ccccc5)N4C(=O)C(NC(=O)C(C)NC)C3)c2)CCC2CCC(C(=O)NC(c3ccccc3)c3ccccc3)N2C1=O = 65.1

Moving on to the next compound.
Hi! What's the reported viability, T/C for CCN1CCN(Cc2ccc(Nc3ncc(F)c(-c4cc(F)c5nc(C)n(C(C)C)c5c4)n3)nc2)CC1 + CNC(C)C(=O)NC1CN(S(=O)(=O)c2cccc(S(=O)(=O)N3CCC4CCC(C(=O)NC(c5ccccc5)c5ccccc5)N4C(=O)C(NC(=O)C(C)NC)C3)c2)CCC2CCC(C(=O)NC(c3ccccc3)c3ccccc3)N2C1=O on MPNST complex spheroid with HUVEC/MSC, growth, % test/control?
56.2

###

Tested on: MPNST complex spheroid with HUVEC/MSC, growth, % test/control
Assay: Anticancer human tumor MPNST cell line growth inhibition [Asc];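 note: compounds left on spheroids for seven days before reading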
Settings: curve of first compound; second compound 0.316 µM
Parameter: pIC50
pIC50 (log units): -log10 of the concentration in mol/L.

- C=C(F)C(=O)N1CCN(c2nc(OCC3CCCN3C)nc3c2CCN(c2cccc4cccc(Cl)c24)C3)CC1CC#N (stereo not drawn) + Cc1c(S(C)(=O)=O)c(-c2cc(F)cc(N3CCN(c4ccc(NS(=O)(=O)c5ccc(NC(CCN6CCC(C(=O)OCCCP(=O)(O)O)CC6)CSc6ccccc6)c(S(=O)(=O)C(F)(F)F)c5)cc4)CC3)c2)c(-c2ccc(Cl)cc2)n1C(C)C: 5.43

Moving on to the next compound.
Dear colleague, I am looking for the recorded pIC50 of the following compound: COc1c(OCCCN2CCOCC2)ccc2c3n(c(=NC(=O)c4cnc(N)nc4)nc12)CCN3 + CNC(C)C(=O)NC1CN(S(=O)(=O)c2cccc(S(=O)(=O)N3CCC4CCC(C(=O)NC(c5ccccc5)c5ccccc5)N4C(=O)C(NC(=O)C(C)NC)C3)c2)CCC2CCC(C(=O)NC(c3ccccc3)c3ccccc3)N2C1=O
7.88

###

Recorded viability, T/C values for a group of molecules are listed next.
Tested on: MPNST complex spheroid with HUVEC/MSC, growth, % test/control
Assay: Anticancer human tumor MPNST cell line growth inhibition [Asc];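 note: compounds left on spheroids for seven days before reading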
Conditions: second compound 1 µM; first compound 10 µM; stronger effect = lower value
Text: Multicellular complex tumor spheroid response to apoptosis pathway targeting inhibitors Alrizomadlin, Pelcitoclax, and Dasminapant in combination with a variety of drugs and investigational agents in selected tumor cell lines […] Compounds. […] If the clinical Cmax for an agent had not been determined, the highest concentration tested was 10 microM. […]
Express it in %; write the number only.

- C#Cc1c(F)ccc2cc(O)cc(-c3ncc4c(N5CC6CCC(C5)N6)nc(OCC56CCCN5CC(F)C6)nc4c3F)c12 (configuration not stated) + Cc1c(S(C)(=O)=O)c(-c2cc(F)cc(N3CCN(c4ccc(NS(=O)(=O)c5ccc(NC(CCN6CCC(C(=O)OCCCP(=O)(O)O)CC6)CSc6ccccc6)c(S(=O)(=O)C(F)(F)F)c5)cc4)CC3)c2)c(-c2ccc(Cl)cc2)n1C(C)C: 77

Dear colleague, I am looking for the recorded viability, T/C of the following molecule: C=CC(=O)N1CCN(c2nc(=O)n(-c3c(C)ccnc3C(C)C)c3nc(-c4c(O)cccc4F)c(F)cc23)C(C)C1 (configuration not stated) + Cc1c(S(C)(=O)=O)c(-c2cc(F)cc(N3CCN(c4ccc(NS(=O)(=O)c5ccc(NC(CCN6CCC(C(=O)OCCCP(=O)(O)O)CC6)CSc6ccccc6)c(S(=O)(=O)C(F)(F)F)c5)cc4)CC3)c2)c(-c2ccc(Cl)cc2)n1C(C)C
118

###

Test system: MPNST complex spheroid with HUVEC/MSC, growth, % test/control
Experiment: Anticancer human tumor MPNST cell line growth inhibition [Asc];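 note: compounds left on spheroids for seven days before reading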
Conditions: second compound 3 µM; first compound 0.01 µM; stronger effect = lower value
Parameter: viability, T/C (%)
Express it in %; write the number only.

Below, 4 molecules whose answers are already recorded.
• NC1CCC(NC2CC2c2ccccc2)CC1 (stereo unspecified) + CCN1C(C(=O)NC23CCC(C(=O)O)(CC2)CC3)C(c2cccc(Cl)c2F)C2(C(=O)Nc3cc(Cl)ccc32)C12CCCCC2 = 59.8
• O=C(c1ccc(F)c(F)c1Nc1ccc(I)cc1F)N1CC(O)([C@@H]2CCCCN2)C1 + CCN1C(C(=O)NC23CCC(C(=O)O)(CC2)CC3)C(c2cccc(Cl)c2F)C2(C(=O)Nc3cc(Cl)ccc32)C12CCCCC2 = 82.9
• Cn1ncnc1[C@H]1c2n[nH]c(=O)c3cc(F)cc(c23)N[C@@H]1c1ccc(F)cc1 + CCN1C(C(=O)NC23CCC(C(=O)O)(CC2)CC3)C(c2cccc(Cl)c2F)C2(C(=O)Nc3cc(Cl)ccc32)C12CCCCC2 = 86.6
• COc1c(OCCCN2CCOCC2)ccc2c3n(c(=NC(=O)c4cnc(N)nc4)nc12)CCN3 + CCN1C(C(=O)NC23CCC(C(=O)O)(CC2)CC3)C(c2cccc(Cl)c2F)C2(C(=O)Nc3cc(Cl)ccc32)C12CCCCC2 = 62

Dear colleague, I am looking for the recorded viability, T/C of the following molecule: CNC(C)C(=O)NC1CN(S(=O)(=O)c2cccc(S(=O)(=O)N3CCC4CCC(C(=O)NC(c5ccccc5)c5ccccc5)N4C(=O)C(NC(=O)C(C)NC)C3)c2)CCC2CCC(C(=O)NC(c3ccccc3)c3ccccc3)N2C1=O (stereo unspecified) + CCN1C(C(=O)NC23CCC(C(=O)O)(CC2)CC3)C(c2cccc(Cl)c2F)C2(C(=O)Nc3cc(Cl)ccc32)C12CCCCC2
86.9

Dear colleague, I am looking for the recorded viability, T/C of the following molecule: CCN1CCN(Cc2ccc(Nc3ncc(F)c(-c4cc(F)c5nc(C)n(C(C)C)c5c4)n3)nc2)CC1 + CCN1C(C(=O)NC23CCC(C(=O)O)(CC2)CC3)C(c2cccc(Cl)c2F)C2(C(=O)Nc3cc(Cl)ccc32)C12CCCCC2
92

###

System: MPNST complex spheroid with HUVEC/MSC, growth, % test/control
Assay: Anticancer human tumor MPNST cell line growth inhibition [Asc];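 note: compounds left on spheroids for seven days before reading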
Details: second compound 1 µM; first compound 0.0949 µM; stronger effect = lower value
Recorded viability, T/C values for a group of compounds are listed next.

* Cc1nc(N2CCC3(CC2)COC(C)C3N)c(CO)nc1Sc1ccnc(N)c1Cl (configuration not stated) + CNC(C)C(=O)NC1CN(S(=O)(=O)c2cccc(S(=O)(=O)N3CCC4CCC(C(=O)NC(c5ccccc5)c5ccccc5)N4C(=O)C(NC(=O)C(C)NC)C3)c2)CCC2CCC(C(=O)NC(c3ccccc3)c3ccccc3)N2C1=O | 49.9%

Moving on to the next compound.
Hi! What's the reported viability, T/C for NC(=O)C(=Cn1cnc(-c2cc(C(F)(F)F)cc(C(F)(F)F)c2)n1)c1cncnc1 + Cc1c(S(C)(=O)=O)c(-c2cc(F)cc(N3CCN(c4ccc(NS(=O)(=O)c5ccc(NC(CCN6CCC(C(=O)OCCCP(=O)(O)O)CC6)CSc6ccccc6)c(S(=O)(=O)C(F)(F)F)c5)cc4)CC3)c2)c(-c2ccc(Cl)cc2)n1C(C)C on MPNST complex spheroid with HUVEC/MSC, growth, % test/control?
50.6%
